Test system: endogenous kinase (synuclein phosphorylation)
assay.method.text: HEK-293 cells overexpressing synuclein with empty vector, inhibition of synuclein phosphorylation
Format: cell-based, human
condition.notes: Homo sapiens, HEK293, read-out: EC50 Based on the Percent Inhibition of Synuclein Phosphorylation, Synuclein + Vector
outcome.measure: pEC50
Please keep in mind that pEC50 is minus log10 of the molar concentration; only the number is needed.

In one line, give reported pEC50 of the entry CC[C@@H]1C(=O)N(C)c2cnc(Nc3ccc(C(=O)NC4CCN(C)CC4)cc3OC)nc2N1C1CCCC1 .
7.00

====

In this section we review reported EC50 values for a set of compounds.
target.under.test: PLK2 (Homo sapiens)
Sequence (Q9NYY3 whole entry): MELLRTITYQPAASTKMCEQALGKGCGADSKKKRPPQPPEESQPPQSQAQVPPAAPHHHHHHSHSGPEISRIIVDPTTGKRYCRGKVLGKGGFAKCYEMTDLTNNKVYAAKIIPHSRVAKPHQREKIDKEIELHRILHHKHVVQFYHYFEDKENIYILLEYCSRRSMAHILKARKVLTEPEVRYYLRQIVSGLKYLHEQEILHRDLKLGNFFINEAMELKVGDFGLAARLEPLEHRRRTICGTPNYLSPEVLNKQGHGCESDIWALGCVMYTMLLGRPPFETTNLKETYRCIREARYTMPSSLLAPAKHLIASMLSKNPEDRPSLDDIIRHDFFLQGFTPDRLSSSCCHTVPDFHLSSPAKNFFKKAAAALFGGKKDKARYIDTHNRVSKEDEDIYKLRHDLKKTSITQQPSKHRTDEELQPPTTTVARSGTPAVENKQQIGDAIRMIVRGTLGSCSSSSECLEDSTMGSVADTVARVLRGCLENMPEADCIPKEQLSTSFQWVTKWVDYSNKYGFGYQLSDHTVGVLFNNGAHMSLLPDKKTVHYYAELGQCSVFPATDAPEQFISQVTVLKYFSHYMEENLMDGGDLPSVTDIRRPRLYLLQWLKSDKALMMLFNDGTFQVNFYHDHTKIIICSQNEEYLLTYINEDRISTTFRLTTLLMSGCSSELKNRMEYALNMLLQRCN
assay.method.text: HEK-293 cells overexpressing synuclein and PLK2, inhibition of synuclein phosphorylation
Assay type: cell-based
Design: expressed in transfected cells; host or cells: HEK-293
condition.notes: 293 cells, Table 18; read-out: EC50, Over-Expressed PLK2 (293)
Give your result in µM as a bare value.

>  <compound>
CN(C)c1nc2c(Br)c(Br)c(Br)c(Br)c2[nH]1

>  <EC50 (µM)>
18.6

$$$$
>  <compound>
COC(=O)[C@@]1(O)C[C@H]2O[C@]1(C)n1c3ccccc3c3c4c(c5c6ccccc6n2c5c31)C(=O)NC4 [Compound K252A]

>  <EC50 (µM)>
7.1

$$$$

Shifting focus to the compound that follows.
In one line, give reported EC50 of the entry NC(=O)c1sc2c([N+](=O)[O-])cc(C(F)(F)F)cc2[n+]1[O-] .
38

====

target.under.test: UniProt:P53350
Sequence (P53350 whole entry): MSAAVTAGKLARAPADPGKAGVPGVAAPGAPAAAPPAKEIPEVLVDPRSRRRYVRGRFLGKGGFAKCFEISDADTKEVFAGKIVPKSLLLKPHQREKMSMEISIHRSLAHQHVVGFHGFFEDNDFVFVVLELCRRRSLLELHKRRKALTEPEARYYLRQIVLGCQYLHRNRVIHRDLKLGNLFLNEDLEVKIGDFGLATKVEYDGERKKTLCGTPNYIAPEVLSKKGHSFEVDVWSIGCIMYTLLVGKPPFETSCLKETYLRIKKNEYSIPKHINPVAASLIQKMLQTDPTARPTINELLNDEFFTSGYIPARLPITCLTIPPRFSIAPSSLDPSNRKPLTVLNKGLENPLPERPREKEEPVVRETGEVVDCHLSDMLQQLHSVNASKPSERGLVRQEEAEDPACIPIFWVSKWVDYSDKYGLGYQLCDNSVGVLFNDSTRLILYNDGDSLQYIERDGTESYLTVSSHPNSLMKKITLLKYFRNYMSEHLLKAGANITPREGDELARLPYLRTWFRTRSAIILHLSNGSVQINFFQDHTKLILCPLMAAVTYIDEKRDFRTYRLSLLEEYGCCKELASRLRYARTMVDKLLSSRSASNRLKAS
assay.method.text: HEK-293 cells overexpressing synuclein and PLK1, inhibition of synuclein phosphorylation
condition.notes: HEK-293, Example 16, Table 21; read-out: EC50 Based on the Percent Inhibition of Synuclein Phosphorylation, Synuclein + PLK1
outcome.measure: pEC50
Please keep in mind that pEC50 is minus log10 of the molar concentration; only the number is needed.

In one line, give reported pEC50 of the entry CN(C)c1nc2c(Br)c(Br)c(Br)c(Br)c2[nH]1 .
4.57

====

target.under.test: PLK3 (Homo sapiens)
Sequence (Q9H4B4 whole entry): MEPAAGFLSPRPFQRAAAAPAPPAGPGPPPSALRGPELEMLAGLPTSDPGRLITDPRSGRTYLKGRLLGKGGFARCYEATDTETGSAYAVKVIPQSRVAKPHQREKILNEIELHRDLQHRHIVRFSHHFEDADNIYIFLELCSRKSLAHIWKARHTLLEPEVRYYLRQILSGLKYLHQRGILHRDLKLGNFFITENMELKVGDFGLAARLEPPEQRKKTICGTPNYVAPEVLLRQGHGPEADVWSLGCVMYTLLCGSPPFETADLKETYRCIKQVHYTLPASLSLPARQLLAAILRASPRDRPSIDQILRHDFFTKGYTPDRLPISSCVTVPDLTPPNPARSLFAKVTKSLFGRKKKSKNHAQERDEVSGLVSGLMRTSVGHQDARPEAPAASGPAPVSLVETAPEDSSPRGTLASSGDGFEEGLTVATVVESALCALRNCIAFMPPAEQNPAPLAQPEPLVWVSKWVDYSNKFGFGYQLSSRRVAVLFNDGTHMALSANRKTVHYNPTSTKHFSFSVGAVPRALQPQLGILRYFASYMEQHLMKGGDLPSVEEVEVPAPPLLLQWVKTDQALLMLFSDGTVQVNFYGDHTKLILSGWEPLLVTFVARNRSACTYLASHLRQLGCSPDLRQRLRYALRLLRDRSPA
assay.method.text: HEK-293 cells overexpressing synuclein and PLK3, inhibition of synuclein phosphorylation
condition.notes: HEK-293, Example 16, Table 21; read-out: EC50 Based on the Percent Inhibition of Synuclein Phosphorylation, Synuclein + PLK3
outcome.measure: pEC50
Please keep in mind that pEC50 is minus log10 of the molar concentration; only the number is needed.

In one line, give reported pEC50 of the entry CN(C)c1nc2c(Br)c(Br)c(Br)c(Br)c2[nH]1 .
4.43

====

target.under.test: UniProtKB Q9NYY3
assay.method.text: HEK-293 cells overexpressing synuclein and PLK2, inhibition of synuclein phosphorylation
Format: cell-based
Parameters: expressed in transfected cells; host or cells: HEK-293
condition.notes: HEK-293, Example 16, Table 21; read-out: EC50 Based on the Percent Inhibition of Synuclein Phosphorylation, Synuclein + PLK2
outcome.measure: pEC50
Please keep in mind that pEC50 is minus log10 of the molar concentration; only the number is needed.

Fill in pEC50 for CN(C)c1nc2c(Br)c(Br)c(Br)c(Br)c2[nH]1 tested with UniProtKB Q9NYY3.
4.86

====

target.under.test: PLK2 (Homo sapiens)
assay.method.text: in vitro biochemical assay of PLK2-driven synuclein phosphorylation
condition.notes: PLK2-driven synuclein phosphorylation; read-out: IC50 in the in vitro biochemical assay
In this section we review reported pIC50 values for a set of molecules.
Please keep in mind that pIC50 is minus log10 of the molar concentration; only the number is needed.

>  <molecule>
NC(=O)c1sc2c([N+](=O)[O-])cc(C(F)(F)F)cc2[n+]1[O-] [ELN-481080]

>  <target.under.test>
PLK2 (Homo sapiens)

>  <pIC50>
5.11

$$$$

Shifting focus to the molecule that follows.
In one line, give reported pIC50 of the entry CN(C)c1nc2c(Br)c(Br)c(Br)c(Br)c2[nH]1 [DMAT] .
5.68
